Reported composite z-score values for the following molecules.
System: Chordin-like protein 2 (CHRDL2)
Experiment: CHRDL2 small-molecule binders, primary screen, biochemical, small-molecule microarray, 635 nm fluorescence (AID 1126);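 note: printed compound slides probed with Chrdl2 protein at 4 µg/mL for 1 h at 4 C; score merges 667 nm emission intensity with signal to noise over three replicate slides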
Conditions: small-molecule microarray binding, fluorescence 635 nm; higher = more signal
Measurement type: composite z-score

INSERT INTO assay_data (molecule, target_system, measurement_type, reported) VALUES
  ('O=C1[C@H]2[C@H]3[C@H](O)[C@H](O)CC(=NOC[C@@H](O)COCc4ccco4)[C@@H]3CC[C@H]2C(=O)N1C[C@@H]1CCCO1', 'Chordin-like protein 2 (CHRDL2)', 'composite z-score', 1.53),
  ('CO[C@H]1COC(=O)CCC[C@@H](C)[C@H](OC)COC(=O)[C@@H]2CCCN2C(=O)CC=C[C@@H]1C', 'Chordin-like protein 2 (CHRDL2)', 'composite z-score', 1.46),
  ('CC1O[C@H]2C3=C(C(=O)[C@@H]4O[C@@H]4[C@H]3O)[C@@H]1C1[C@@H](C)OC=C3[C@H](O)C4O[C@@H]4C(=NOCc4ccccc4)[C@]312 (some centres undefined)', 'Chordin-like protein 2 (CHRDL2)', 'composite z-score', 0.0959),
  ('CCc1cc2c(nc1CC)CCN(CCC(C)=NO[C@@H](C)c1cn([C@H](CO)Cc3ccccc3)nn1)C2', 'Chordin-like protein 2 (CHRDL2)', 'composite z-score', 0.231);
